Reference source: paper PMC12040169

PROTOCOL: in vitro
APPLIED CONDITIONS: human, hela cells, % viability

| COMPOUND | viability at 28.5 h, 10 µM / % |
| --- | --- |
| CS(=O)(=O)N(CC(=O)NCc1ccccn1)c1ccc(C23CC4CC(CC(C4)C2)C3)cc1 [CBK268448] | 106 |
| COc1ccc(-c2cn3ccnc3c(Nc3ccc(N4CCOCC4)cc3)n2)cc1 [CBK066265] | 98.5 |
| CC1=NN(c2ccc(C)cc2)C(=O)/C1=C\Nc1ccc(S(=O)(=O)Nc2nc(C)cc(C)n2)cc1 [CBK262398] | 92.8 |
| O=C(Nc1ccc(OCc2ccoc2)cc1C(=O)O)c1ccc(Cl)cc1Cl [CBK003768D] | 87.5 |
| O=C(O)CCc1ccc(S(=O)(=O)NCc2ccccc2)cc1 [CBK287054] | 79.8 |
| O=c1cc(Cn2ccnc2)c2cc3c(cc2o1)CCC3 [CBK287813] | 88.8 |
| CCCOCCCNS(=O)(=O)c1ccc(C(C)(C)CC)cc1 [CBK044821] | 106 |
| Cc1cc(C)n2nc(CCCOC(=O)c3ccn(C(C)C)n3)nc2n1 [CBK305272] | 112 |
| COCCn1c(CO)nnc1[C@H]1C[C@@H](NC(=O)c2cc(O)ccc2F)C1 [CBK307698] | 90.4 |
